- Tested on: HRV16
- protocol_description: HRV16 HELA EC50 (cytopathic effect in H1-HeLa cells)
- Type: cell-based
- cond: 96 h, H1-HeLa cells, 33° C., read-out: HRV16 HELA EC50
experimental_readout: pEC50
Would you please state pEC50, meaning minus log10 of the concentration in mol/L, as a bare number?

* C[C@H](NP(=O)(OC[C@@]1(C#N)O[C@@H](c2ccc3c(N)ncnn23)[C@H](O)[C@@H]1O)Oc1ccccc1)C(=O)OC1CCCCCC1 (single isomer, unassigned) [Example 136] | 6.24

(Q) Return pEC50 (reported value) for this compound: C[C@H](NP(=O)(OC[C@@]1(C#N)O[C@@H](c2ccc3c(N)ncnn23)[C@H](O)[C@@H]1O)Oc1ccccc1)C(=O)OC1CCCN(CC(F)(F)F)CC1 (stereo partly shown)
(A) 5.86

(Q) Return pEC50 (reported value) for this compound: C[C@H](NP(=O)(OC[C@@]1(C#N)O[C@@H](c2ccc3c(N)ncnn23)[C@H](O)[C@@H]1O)Oc1ccccc1)C(=O)OC1CCN(C)CC1 (stereo partly shown)
(A) 4.30

(Q) Return pEC50 (reported value) for this compound: C[C@H](NP(=O)(OC[C@@]1(C#N)O[C@@H](c2ccc3c(N)ncnn23)[C@H](O)[C@@H]1O)Oc1ccccc1)C(=O)O[C@H]1CC[C@H](C)CC1 (mixture of isomers)
(A) 6.79
